- Experimental system: T1, human platelet α2β1 integrin (immobilized on microtiter plates) (human, UniProt P17301 30-1181; P05556 21-798)
- T1 construct: plates custom-coated with human platelet α2β1 by GTI Inc; also called immobilized α2β1 integrin; α2β1-coated plates
- T1 sequence (P17301 30-1181 E534K limits assumed, chain 1 of 2): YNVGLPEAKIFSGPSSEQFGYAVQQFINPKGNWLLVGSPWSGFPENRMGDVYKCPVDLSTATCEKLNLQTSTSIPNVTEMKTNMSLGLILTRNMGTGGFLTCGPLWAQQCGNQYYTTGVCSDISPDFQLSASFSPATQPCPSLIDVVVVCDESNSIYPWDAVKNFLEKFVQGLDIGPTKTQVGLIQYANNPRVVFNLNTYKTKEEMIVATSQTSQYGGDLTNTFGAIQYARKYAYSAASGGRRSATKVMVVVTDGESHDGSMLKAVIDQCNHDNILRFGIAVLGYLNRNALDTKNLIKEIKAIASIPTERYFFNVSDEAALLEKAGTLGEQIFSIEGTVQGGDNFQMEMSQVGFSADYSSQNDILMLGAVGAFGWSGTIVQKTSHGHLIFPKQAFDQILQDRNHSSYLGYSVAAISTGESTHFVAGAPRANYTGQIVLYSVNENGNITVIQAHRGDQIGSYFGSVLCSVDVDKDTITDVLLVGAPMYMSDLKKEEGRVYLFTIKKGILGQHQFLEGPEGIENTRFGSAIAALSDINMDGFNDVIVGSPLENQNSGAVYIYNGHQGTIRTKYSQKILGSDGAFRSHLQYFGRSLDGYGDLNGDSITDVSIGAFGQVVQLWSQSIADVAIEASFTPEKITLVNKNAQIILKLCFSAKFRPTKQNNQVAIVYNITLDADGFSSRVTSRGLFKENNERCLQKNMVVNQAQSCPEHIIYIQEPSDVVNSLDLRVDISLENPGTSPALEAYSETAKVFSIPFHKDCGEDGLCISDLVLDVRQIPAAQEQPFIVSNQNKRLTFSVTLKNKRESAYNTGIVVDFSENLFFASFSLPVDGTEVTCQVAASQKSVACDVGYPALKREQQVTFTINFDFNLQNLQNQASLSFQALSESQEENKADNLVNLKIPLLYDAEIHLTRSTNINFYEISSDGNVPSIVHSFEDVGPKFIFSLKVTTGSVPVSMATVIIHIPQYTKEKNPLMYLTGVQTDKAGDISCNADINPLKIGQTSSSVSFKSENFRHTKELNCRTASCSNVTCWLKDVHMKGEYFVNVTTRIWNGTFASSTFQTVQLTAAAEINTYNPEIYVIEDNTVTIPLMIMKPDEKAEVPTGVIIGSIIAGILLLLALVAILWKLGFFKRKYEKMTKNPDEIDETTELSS
- T1 sequence (P05556 21-798 limits assumed, chain 2 of 2): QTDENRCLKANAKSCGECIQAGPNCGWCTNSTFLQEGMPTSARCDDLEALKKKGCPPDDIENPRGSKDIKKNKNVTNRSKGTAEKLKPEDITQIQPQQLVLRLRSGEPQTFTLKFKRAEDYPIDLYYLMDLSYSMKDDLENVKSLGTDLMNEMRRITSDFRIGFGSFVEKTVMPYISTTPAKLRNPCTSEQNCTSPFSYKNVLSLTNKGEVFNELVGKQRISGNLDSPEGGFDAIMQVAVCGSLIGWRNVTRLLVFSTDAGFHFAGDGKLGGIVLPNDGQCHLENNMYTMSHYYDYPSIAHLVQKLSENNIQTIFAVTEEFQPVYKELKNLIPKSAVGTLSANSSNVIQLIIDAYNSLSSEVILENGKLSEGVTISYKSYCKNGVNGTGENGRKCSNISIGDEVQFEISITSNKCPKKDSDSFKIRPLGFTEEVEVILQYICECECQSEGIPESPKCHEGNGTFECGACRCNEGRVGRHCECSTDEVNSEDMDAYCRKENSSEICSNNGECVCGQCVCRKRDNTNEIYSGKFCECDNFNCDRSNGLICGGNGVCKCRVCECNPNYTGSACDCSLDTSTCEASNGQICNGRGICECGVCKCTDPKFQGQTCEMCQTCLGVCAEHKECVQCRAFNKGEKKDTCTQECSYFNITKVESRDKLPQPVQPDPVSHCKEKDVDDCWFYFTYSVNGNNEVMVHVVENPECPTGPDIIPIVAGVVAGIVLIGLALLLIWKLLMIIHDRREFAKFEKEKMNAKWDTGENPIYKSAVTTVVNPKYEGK
- Assay method text: competition with Eu-TMC-2206 on human platelet α2β1-coated plate
The label is True for Ki below 0.6 nM and False for Ki equal to or exceeding 0.6 nM.

Is 0.6 nM strictly greater than the binder's reported Ki? binder: humanized TMC-2206 variant hVH1.0/hVL3.0 (antibody, human IgG1, V domains shown, human IgG1/κ constant regions; also called VH1.0/VL3.0) VH: QVQLQESGPGLVKPSETLSLTCTVSGFSLTNYGIHWVRQPPGKGLEWLGVIWARGFTNYNSALMSRLTISKDNSKNQVSLKLSSVTAADTAVYFCARANDGVYYAMDYWGQGTLVTVSS VL: QFVLTQSPAFLSVTPGEKVTITCSANSSVNYIHWYQQKPDQAPKLLIYDTSKLASGVPSRFSGSGSGTDYTFTISSLEAEDAATYYCQQWTTNPLTFGQGTKVEIK
False

Find out if reported Ki for humanized TMC-2206 variant hVH4.0/hVL1.0 (antibody, human IgG1, V domains shown, human IgG1/κ constant regions) VH: QVQLQESGPGLVKPSETLSLTCTVSGFSLTNYGIHWIRQPPGKGLEWIGVIWARGFTNYNSALMSRLTISKDNSKNQVSLKLSSVTAADTAVYFCARANDGVYYAMDYWGQGTLVTVSS VL: QFVLTQSPAFLSVTPGEKVTITCSANSSVNYIHWYQQKPDQAPKKWIYDTSKLASGVPSRFSGSGSGTDYTFTISSLEAEDAATYYCQQWTTNPLTFGQGTKVEIK is less than 0.6 nM
True

Is it true that Ki reported for humanized TMC-2206 variant hVH4.0/hVL4.0 (antibody, human IgG1, V domains shown, human IgG1/κ constant regions) VH: QVQLQESGPGLVKPSETLSLTCTVSGFSLTNYGIHWIRQPPGKGLEWIGVIWARGFTNYNSALMSRLTISKDNSKNQVSLKLSSVTAADTAVYFCARANDGVYYAMDYWGQGTLVTVSS VL: DVVMTQSPAFLSVTPGEKVTITCSANSSVNYIHWYQQKPDQAPKKWIYDTSKLASGVPSRFSGSGSGTDYTFTISSLEAEDAATYYCQQWTTNPLTFGQGTKVEIK is less than 0.6 nM?
False

Confirm or reject: Ki of humanized TMC-2206 variant hVH3.0/hVL4.0 (antibody, human IgG1, V domains shown, human IgG1/κ constant regions) VH: QVQLQESGPGLVKPSETLSLTCTVSGFSLTNYGIHWVRQPPGKGLEWLGVIWARGFTNYNSALMSRVTISVDTSKNQFSLKLSSVTAADTAVYFCARANDGVYYAMDYWGQGTLVTVSS VL: DVVMTQSPAFLSVTPGEKVTITCSANSSVNYIHWYQQKPDQAPKKWIYDTSKLASGVPSRFSGSGSGTDYTFTISSLEAEDAATYYCQQWTTNPLTFGQGTKVEIK lies strictly below 0.6 nM
False

Strictly below 0.6 nM in Ki? humanized TMC-2206 variant hVH1.0/hVL1.0 (antibody, human IgG1, V domains shown, human IgG1/κ constant regions; also called humanized prototype; first humanized prototype) VH: QVQLQESGPGLVKPSETLSLTCTVSGFSLTNYGIHWVRQPPGKGLEWLGVIWARGFTNYNSALMSRLTISKDNSKNQVSLKLSSVTAADTAVYFCARANDGVYYAMDYWGQGTLVTVSS VL: QFVLTQSPAFLSVTPGEKVTITCSANSSVNYIHWYQQKPDQAPKKWIYDTSKLASGVPSRFSGSGSGTDYTFTISSLEAEDAATYYCQQWTTNPLTFGQGTKVEIK
True

These entries and their values trace back to patent US20070128190A1.
